Molecular target: human Her3 receptor on cells (T47D, MCF7) (human, UniProt P21860 20-1342); note: test concentration or dose not given here
Sequence (P21860 20-1342 limits assumed, stated change not applied): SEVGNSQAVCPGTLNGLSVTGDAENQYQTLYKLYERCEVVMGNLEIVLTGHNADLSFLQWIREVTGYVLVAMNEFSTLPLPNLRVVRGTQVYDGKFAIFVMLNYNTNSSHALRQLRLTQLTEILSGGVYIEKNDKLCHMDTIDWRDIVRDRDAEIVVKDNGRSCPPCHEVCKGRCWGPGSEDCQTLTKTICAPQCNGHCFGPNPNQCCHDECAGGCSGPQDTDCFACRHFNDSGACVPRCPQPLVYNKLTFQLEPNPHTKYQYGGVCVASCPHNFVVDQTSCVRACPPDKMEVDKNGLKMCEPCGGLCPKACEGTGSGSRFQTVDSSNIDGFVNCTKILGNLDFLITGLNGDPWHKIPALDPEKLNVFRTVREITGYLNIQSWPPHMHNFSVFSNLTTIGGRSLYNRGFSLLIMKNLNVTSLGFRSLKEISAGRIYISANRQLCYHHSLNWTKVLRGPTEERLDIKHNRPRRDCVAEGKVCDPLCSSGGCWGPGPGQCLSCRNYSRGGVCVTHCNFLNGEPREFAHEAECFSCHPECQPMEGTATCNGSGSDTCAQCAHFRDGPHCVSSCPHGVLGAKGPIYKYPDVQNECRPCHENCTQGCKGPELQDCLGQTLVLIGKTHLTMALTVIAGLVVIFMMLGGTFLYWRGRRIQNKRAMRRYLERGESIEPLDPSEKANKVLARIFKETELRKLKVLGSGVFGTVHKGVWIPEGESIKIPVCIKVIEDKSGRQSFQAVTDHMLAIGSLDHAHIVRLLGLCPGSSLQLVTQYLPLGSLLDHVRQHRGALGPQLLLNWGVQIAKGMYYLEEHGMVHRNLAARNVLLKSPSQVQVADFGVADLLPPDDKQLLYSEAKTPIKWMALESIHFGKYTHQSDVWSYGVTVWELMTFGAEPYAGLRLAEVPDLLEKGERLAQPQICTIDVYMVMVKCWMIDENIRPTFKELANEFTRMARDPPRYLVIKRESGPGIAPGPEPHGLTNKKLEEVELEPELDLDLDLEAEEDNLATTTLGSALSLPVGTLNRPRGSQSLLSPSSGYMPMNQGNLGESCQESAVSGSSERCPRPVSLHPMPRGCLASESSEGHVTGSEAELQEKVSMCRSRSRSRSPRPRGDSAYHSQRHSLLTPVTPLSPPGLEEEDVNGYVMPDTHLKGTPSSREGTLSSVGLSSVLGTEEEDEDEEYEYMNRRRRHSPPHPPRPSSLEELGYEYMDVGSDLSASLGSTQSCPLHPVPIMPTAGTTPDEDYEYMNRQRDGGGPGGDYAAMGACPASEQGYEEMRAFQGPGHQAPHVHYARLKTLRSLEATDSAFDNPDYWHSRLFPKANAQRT
Test: cell-based or functional assay
ENDPOINT_LABEL: % Receptor Internalization (T47D cells, FACS) (%)
Record the value in %, omitting the unit from your answer.

{"columns": ["BINDER", "UNITS_SYMBOL", "MEAS_VALUE"],
 "data": [
  ["588F41 (antibody, V domains shown, Purified mouse IgG from a hybridoma; also called 588F41-HC; 588F41-LC) VH: EVQLQQSGPELVKPGASVKMSCKASGYTFTSYVMHWVKQKPGQGLEWLGYINPYNDGTKYNEKFKGMATLTSDKSSSTAYMELISLTSEDSAVYYCAREASYGNPFAYWGQGTLVTVSA VL: DIVMTQSPASLSASVGETVTITCRTSENIYSYLAWFQQKQGNSPQLLVYNTKTLAEGVPSRFSGSGSGTQFSLKINSLQPEDFGNYYCQHHYDTPWTFGGGTKLEIKR", "%", 59]
]}

For this binder ( 588E22 (antibody, V domains shown, Purified mouse IgG from a hybridoma; also called 588E22-HC; 588E22-LC) VH: DVQLQESGPELVGPGESVKISCKGSGYTFTDYGMHWVKQSHAKRLEWIGVITIYDGHTNYNQNFKGKAALTVDKSSNTAYPELARMTSEDSAIYYCARGDYDLFWYLDVWGAGTTVTVSS VL: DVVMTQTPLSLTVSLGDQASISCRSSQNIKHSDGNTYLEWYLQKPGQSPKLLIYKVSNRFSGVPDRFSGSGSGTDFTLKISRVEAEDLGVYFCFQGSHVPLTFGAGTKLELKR ), measured % Receptor Internalization (T47D cells, FACS) is 53

For this binder ( PO-1C9-C4 (antibody, V domains shown, Purified mouse IgG from a hybridoma; also called PO-1C9-C4-HC; PO-1C9-C4-LC) VH: QVQLQQPGSELVRPGASVKLSCKASGYTFTIFWIHWVKQRPGQGLEWIGNIYPGSGGTNYDEKFKSKATLTVDTFSSTAYMQLSSLTSEDSAVYYCTRWGTGKDYWGQGTTLTVSS VL: DIVLTQSPAIMSASPGEKVTMTCRARSSVSSSYLHWYQQKPGSSPKLWIYSTSNLALGVPARFSGSGSGTSYSLTISSVEAEDAATYYCQQYDSSPFTFGTGTKLEIKR ), measured % Receptor Internalization (T47D cells, FACS) is 41

For this binder ( PO-3H7-E3 (antibody, V domains shown, Purified mouse IgG from a hybridoma; also called PO-3H7-E3-HC; PO-3H7-E3-LC) VH: EVQLQQSGAELVKPGASVKISCKASGYSFTGYYMNWVKQSHGKSLEWIGNINPYYGGSNYNQKFKARATLTVDKSSSTAYMQLNSLTSEDSAVYYCARKGDLYYSMDYWGQGTSVTVSS VL: DIVMTQTPLSLPVSLGDQASISCRSSQSIVHSNGNTYLEWYLQKPGQSPKLLIYKVSNRFSGVPDRFSGSGSGTDFTLKISRVEAEDLGIYYCFQGSHVPPTFGGGTKLELKR ), measured % Receptor Internalization (T47D cells, FACS) is 14

For this binder ( 588F42 (antibody, V domains shown, Purified mouse IgG from a hybridoma; also called 588F42-HC; 588F42-LC) VH: EVQLQQSGPELVKPGASVKMSCKASGYTFTSYVMHWVKQKPGQGLEWLGYINPYNDGTKYNEKFKGKATLTSDKSSSTAYMELISLTSEDSAVYYCAREASYGNPFAYWGQGTLVTVSA VL: DIVMTQSPASLSASVGETVTITCRTSENIYSYLAWFQQKQGNSPQLLVYNTKTLAEGVPSRFSGSGSGTQFSLKINSLQPEDFGNYYCQHHYDTPWTFGGGTKLEIK ), measured % Receptor Internalization (T47D cells, FACS) is 57
